# TGT: Voltage-gated potassium channel subunit beta-2 (Rattus norvegicus) (UniProt P62483)
# Sequence (P62483 whole entry, looked up): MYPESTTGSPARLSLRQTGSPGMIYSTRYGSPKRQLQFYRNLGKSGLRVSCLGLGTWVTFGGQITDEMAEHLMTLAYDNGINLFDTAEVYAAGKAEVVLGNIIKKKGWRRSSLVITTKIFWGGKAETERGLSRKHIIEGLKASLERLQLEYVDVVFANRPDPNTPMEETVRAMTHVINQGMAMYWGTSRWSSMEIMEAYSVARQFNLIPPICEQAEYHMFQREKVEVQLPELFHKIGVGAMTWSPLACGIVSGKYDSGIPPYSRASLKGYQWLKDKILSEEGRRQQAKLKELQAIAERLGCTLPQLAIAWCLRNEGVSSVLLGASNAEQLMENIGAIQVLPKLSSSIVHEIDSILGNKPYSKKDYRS
# PROTOCOL DESCRIPTION: inhibitors of rat Kvbeta2 reductase activity – biochemical, NADPH fluorescence, primary screen (AID 622);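 note: slope of raw intensity against log time taken from 70 to 1610 s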
# TEST CONTEXT: recombinant KvBeta, 4-cyanobenzaldehyde reduction, at 10 µM, hits give high values
QUANTITY NAME: fluorescence slope
Write the value as a bare number.

Below: 2 molecules and their reported fluorescence slope.
{"columns": ["MOLECULE", "fluorescence slope"],
 "data": [
  ["Cc1cc(S(=O)(=O)n2cnc3ccccc32)c(C)cc1Cl", -0.473],
  ["COc1ccc(CCn2c(N)c(C#N)c3nc4ccccc4nc32)cc1OC", -0.52]
]}

In: Please report the recorded fluorescence slope for `CC1=C(C#N)C(=O)NC(C)(C)C1` .
Out: -0.413

In: Item `CCN1CCN(CCCNC(=O)c2cn(CCOC)c(=O)c3c2c2ccccc2n3C)CC1` has what recorded fluorescence slope?
Out: -0.569

In: Name the reported fluorescence slope value associated with the molecule `COc1ccccc1C(=O)n1nc(-c2ccccc2)nc1N`
Out: -0.619

In: GET /values?readout=fluorescence slope&item= `CC(=O)CC(=O)Nc1ccccc1NC(C)=O`
Out: -0.579

In: For the molecule shown here, CCC(=O)N1CCc2cc(Br)cc(S(=O)(=O)CCC(=O)NCC3CCCO3)c21 (centres undefined) , give the reported fluorescence slope.
Out: -0.312

In: Entry `NC(=O)C1(N2CCCCC2)CCN(Cc2ccccc2Cl)CC1` : reported fluorescence slope = ?
Out: -0.233

In: fluorescence slope for `Cc1ccc(S(=O)(=O)N(C)c2ccc(OCC(=O)OCc3c(C)noc3C)cc2)cc1` ?
Out: -0.583

In: Returns the measured fluorescence slope for the input molecule. Input: Cc1cc(C)c(NC(=O)C2CCCN2CCO)c(C)c1 (centres undefined)
Out: -0.514

In: fluorescence slope lookup needed for `COc1cccc(-c2cc3nc4c(c(N5CCC6(CC5)OCCO6)n3n2)CCCC4)c1` , thanks.
Out: -0.401

In: Bench note: what fluorescence slope did `COc1ccccc1-c1ccc(Nc2cccc(C(C)=O)c2)nn1` show?
Out: -0.576

In: For `COc1ccc(Cn2c(=O)[nH]c3cc(C(=O)NCCCN4CCCC4)ccc3c2=O)cc1` , what is its reported fluorescence slope?
Out: -0.26

In: Name the recorded fluorescence slope for COc1ccccc1NC(=O)N1c2ccc(F)cc2CCC1C (centres undefined) .
Out: -0.567

In: Record request: fluorescence slope value, item CCOC(=O)C1=C(C)NC(SC(C)=O)=NC1c1ccc(OC(C)=O)c(OC)c1 (centres undefined)
Out: -0.507

In: Item under review: `COC(=O)c1sc(NC(=O)COc2ccccc2OC)nc1C` . Reported fluorescence slope?
Out: -0.229
